Measured values drawn from ChEMBL document CHEMBL1201862 for this set.

Biological target: Kappa-type opioid receptor (Homo sapiens, UniProt P41145)
Sequence (P41145 whole entry): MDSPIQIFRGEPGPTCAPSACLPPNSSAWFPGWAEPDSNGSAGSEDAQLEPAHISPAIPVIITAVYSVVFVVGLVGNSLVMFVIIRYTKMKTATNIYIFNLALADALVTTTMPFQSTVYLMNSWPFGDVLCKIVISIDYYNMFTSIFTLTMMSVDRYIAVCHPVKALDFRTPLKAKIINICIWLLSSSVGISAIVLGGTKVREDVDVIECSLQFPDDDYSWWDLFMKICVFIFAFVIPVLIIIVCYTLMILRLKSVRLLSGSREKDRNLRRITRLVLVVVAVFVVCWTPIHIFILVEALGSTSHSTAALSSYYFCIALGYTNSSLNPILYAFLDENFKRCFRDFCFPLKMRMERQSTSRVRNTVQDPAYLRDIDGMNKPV
Assay type: functional
pEC50: −log10 of the molar value.
Recorded measurements of pEC50, one per entry
experimental endpoint: pEC50

1. O=C(c1cnccn1)N(Cc1ccco1)C1(C(=O)NC2CCCCC2)CCCCC1
5.88
2. COc1ccc(CN(CC2CCCO2)C(=O)CN2C(=O)COc3ccccc32)cc1OC (configuration not stated)
4.94

###

Biological target: UniProtKB Q9XUB2
Sequence (Q9XUB2 whole entry): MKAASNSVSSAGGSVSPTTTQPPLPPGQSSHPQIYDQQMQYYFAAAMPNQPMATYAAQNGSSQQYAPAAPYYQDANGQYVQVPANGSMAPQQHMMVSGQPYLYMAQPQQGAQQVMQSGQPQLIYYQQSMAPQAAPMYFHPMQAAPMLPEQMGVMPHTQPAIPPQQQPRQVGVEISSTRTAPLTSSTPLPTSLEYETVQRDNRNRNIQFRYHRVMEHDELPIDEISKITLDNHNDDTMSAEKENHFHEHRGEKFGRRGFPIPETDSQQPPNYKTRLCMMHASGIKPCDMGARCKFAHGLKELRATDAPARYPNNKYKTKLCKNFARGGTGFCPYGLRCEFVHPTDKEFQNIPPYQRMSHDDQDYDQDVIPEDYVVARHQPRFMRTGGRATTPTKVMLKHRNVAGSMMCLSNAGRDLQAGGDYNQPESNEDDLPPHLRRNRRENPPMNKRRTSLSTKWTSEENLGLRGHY
Assay: MEX-5/TCR-2 RNA interaction inhibitors, dose response, biochemical, C. elegans, fluorescence polarization (AID 1960)
The source made the active and inactive calls.
Below is a list of entries, each paired with its recorded EC50 value.
experimental endpoint: EC50

1. CCN(CC)C(=O)CNc1ccc(C(F)(F)F)cc1[N+](=O)[O-]
> 300 µM (not active)
2. NC(=O)Cn1cc(C=C2C(=O)NC(=O)NC2=O)c2ccccc21
> 300 µM (inconclusive)
3. CC1(OC(=O)c2cnc3ccccc3n2)C(=O)C=C2C=C(c3ccc(C#N)cc3)OC=C2C1=O (stereo not drawn)
44.9 µM (active)

###

Here we list molecules with their recorded AC50 when tested on Cytochrome P450 1A2 (Homo sapiens, UniProt P05177).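 Further: PubChem cytochrome P450 panel assay, CYP1A2 panel member.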
Sequence (P05177 whole entry): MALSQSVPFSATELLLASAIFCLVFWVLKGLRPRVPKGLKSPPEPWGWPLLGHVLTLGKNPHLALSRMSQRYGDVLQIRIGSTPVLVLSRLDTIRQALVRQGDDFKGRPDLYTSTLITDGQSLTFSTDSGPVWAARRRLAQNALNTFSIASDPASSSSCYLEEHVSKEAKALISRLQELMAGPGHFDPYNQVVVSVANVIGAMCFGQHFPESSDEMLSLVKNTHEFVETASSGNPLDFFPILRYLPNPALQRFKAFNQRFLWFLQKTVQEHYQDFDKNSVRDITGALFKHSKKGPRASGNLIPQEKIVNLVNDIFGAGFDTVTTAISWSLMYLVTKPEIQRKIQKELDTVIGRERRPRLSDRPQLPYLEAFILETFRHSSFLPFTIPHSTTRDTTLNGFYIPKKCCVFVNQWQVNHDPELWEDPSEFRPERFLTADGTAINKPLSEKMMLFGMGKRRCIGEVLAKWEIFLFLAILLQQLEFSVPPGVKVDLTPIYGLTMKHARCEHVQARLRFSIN
experimental endpoint: AC50

1) CCCc1cc2c(cc1NC(=O)c1ccc(Br)cc1)OCO2
1.26 µM (inconclusive)
2) COCC1C2CC[C@H]3C(OCc4ccc(OC)cc4)OC[C@]4(C)[C@H]3C2=C(CN4C(=O)OC(C)(C)C)[C@H](C)C1COC (some centres undefined)
15.8 µM (inconclusive)
3) C[C@@H]1c2ccccc2Cn2cc3c(c21)C(=O)c1cccc(O[P@@](=O)(O)OCc2ccccc2)c1C3=O
3.16 µM (inconclusive)
4) O=C(c1cccc(F)c1)N1CCC2(CCCN(c3ncccn3)C2)CC1
25.1 µM (inconclusive)

###

Reported values: AC50 for Cytochrome P450 2D6 (Homo sapiens), one per item.
experimental endpoint: AC50

1) CCCc1cc2c(cc1NC(=O)c1ccc(Br)cc1)OCO2
0.708 µM (inconclusive)
2) Cc1cnc(CNc2ncnc3ccc(-c4ccc(N(C)C)cc4)cc23)cn1
25.1 µM (inconclusive)
3) O=C(c1csnn1)N1CCC2(CCCN(c3ccccc3)C2)CC1
20 µM (inconclusive)
4) Oc1nc(S)nc(SCc2c(Cl)c(Cl)c(Cl)c(Cl)c2Cl)n1
3.98 µM (inconclusive)
5) N#Cc1cccc(-c2cc(NCc3cccs3)ncn2)c1
20 µM (inconclusive)
6) COc1ccc(C(=O)c2cnc3ccccc3c2-c2ccccc2)cc1
31.6 µM (inconclusive)
7) O=C(c1cccc(F)c1)N1CCC2(CCCN(c3ncccn3)C2)CC1
31.6 µM (inconclusive)
8) CN(C)c1ccc(NC(=O)CSc2nc(N)c(C(=O)Nc3ccc(N(C)C)cc3)s2)cc1
17.8 µM (inconclusive)

###

Reported AC50 values, Cytochrome P450 1A2 (Homo sapiens, UniProt P05177).
Structures can show the parent of a compound that is named as a salt.
experimental endpoint: AC50

1. COc1ccccc1N1CCN(c2nc(-c3ccccc3)cc(C(F)(F)F)n2)CC1
0.631 µM (inconclusive)
2. NC(=NO)C1COc2ccccc2O1 (stereo not given)
14.1 µM (inconclusive)
3. COc1cccc(-c2nc(C[S+]([O-])CC(=O)N3CCC4(CC3)OCCO4)c(C)o2)c1 (stereo not given)
25.1 µM (inconclusive)
4. Clc1ccccc1-c1cc(NCCN2CCOCC2)ncn1
31.6 µM (inconclusive)
5. CCN(CC)CCOCCOC(=O)C1(c2ccccc2)CCCC1 [CARBETAPENTANE CITRATE]
12.6 µM (inconclusive)
6. CCN1C(=O)/C(=C\c2c[nH]c3ccccc23)S/C1=N\c1ccc(C)cc1
6.31 µM (inconclusive)
7. Cc1c(-c2ccc(F)cc2)nc(N)c(C#N)c1-c1cccs1
1.78 µM (inconclusive)
8. O=c1[nH]c(=O)n([C@H]2C[C@H](O)[C@H](CO)O2)cc1/C=C\Br
31.6 µM (inconclusive)
9. CCC(C)(C)NC(=O)c1ccc2c(c1)N(CC(=O)OC)C(=O)C(C)(C)O2
0.158 µM (inconclusive)
10. CN(C)C(=O)c1ccc(-c2cc(NCc3cccnc3)ncn2)cc1
20 µM (inconclusive)

###

# AC50 listing for each entry below
Target: DNA repair protein RAD52 homolog (Homo sapiens, UniProt P43351)
Sequence (P43351 whole entry): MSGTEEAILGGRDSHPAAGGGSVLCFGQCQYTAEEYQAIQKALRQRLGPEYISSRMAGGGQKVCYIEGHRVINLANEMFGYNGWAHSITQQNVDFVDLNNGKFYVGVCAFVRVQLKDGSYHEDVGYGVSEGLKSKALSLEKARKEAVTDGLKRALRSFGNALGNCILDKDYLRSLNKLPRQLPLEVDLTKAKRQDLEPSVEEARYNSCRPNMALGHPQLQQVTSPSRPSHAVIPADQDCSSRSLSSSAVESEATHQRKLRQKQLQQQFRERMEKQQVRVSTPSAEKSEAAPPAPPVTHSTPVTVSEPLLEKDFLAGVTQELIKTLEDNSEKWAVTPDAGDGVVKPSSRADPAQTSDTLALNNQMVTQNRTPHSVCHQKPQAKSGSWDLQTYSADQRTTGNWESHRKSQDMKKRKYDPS
Type: functional, biochemical
Counter-ions that a name gives are not always drawn. Active and inactive are the calls of the source.
experimental endpoint: AC50

1) CC(=O)Nc1ccc(CNc2nc(NCCN(C)C)nc3cc(-c4ccccc4)sc23)cc1
1370 nM (active)
2) CN(C)CCCn1c2c3ccccc3ccc2c2oc(=O)c3ccccc3c21
< 681 nM (active)
3) Cn1c(C(=O)NCCCN2CCCCCC2)cc2c(=O)n(C)c3ccccc3c21
12400 nM (active)
4) O=C1c2c(O)ccc(O)c2C(=O)c2c(NCCNCCO)ccc(NCCNCCO)c21 [MITOXANTRONE HYDROCHLORIDE]
< 150 nM (active)
5) COc1ccc(-c2nc3c(C(=O)NCCN(C)C)cccc3c3ccccc23)cc1
2890 nM (active)

###

Target: Corticotropin-releasing factor receptor 2/Corticotropin-releasing factor-binding protein (Homo sapiens, UniProt P24387+Q13324)
Sequence (Q13324 whole entry): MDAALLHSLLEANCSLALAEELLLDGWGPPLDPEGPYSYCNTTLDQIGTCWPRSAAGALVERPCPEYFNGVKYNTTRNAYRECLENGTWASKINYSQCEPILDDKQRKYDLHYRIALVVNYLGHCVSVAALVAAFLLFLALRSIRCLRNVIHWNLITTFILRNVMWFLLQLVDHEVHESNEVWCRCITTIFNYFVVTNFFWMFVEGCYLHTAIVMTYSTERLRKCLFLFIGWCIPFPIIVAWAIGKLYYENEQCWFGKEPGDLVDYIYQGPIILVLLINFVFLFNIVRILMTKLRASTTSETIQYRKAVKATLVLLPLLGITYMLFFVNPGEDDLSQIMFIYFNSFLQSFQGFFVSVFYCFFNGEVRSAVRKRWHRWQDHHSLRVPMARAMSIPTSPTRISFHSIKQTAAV
Sequence (P24387 whole entry): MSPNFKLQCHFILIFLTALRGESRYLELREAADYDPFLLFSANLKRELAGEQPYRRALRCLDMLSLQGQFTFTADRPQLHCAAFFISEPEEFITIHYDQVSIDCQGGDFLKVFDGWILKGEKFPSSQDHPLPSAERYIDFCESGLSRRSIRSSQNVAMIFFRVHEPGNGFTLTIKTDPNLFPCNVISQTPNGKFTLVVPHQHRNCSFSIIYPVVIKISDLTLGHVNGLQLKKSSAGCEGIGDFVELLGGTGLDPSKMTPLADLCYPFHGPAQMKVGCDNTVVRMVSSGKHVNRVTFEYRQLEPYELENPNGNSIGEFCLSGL
Assay: Dose Response confirmation of uHTS hits for small molecule antagonists of the CRF-binding protein and CRF-R2 receptor complex.
Type: functional
Details: read-out: IC50_Mean
Activity calls are given as the source filed them.
Possible outcomes: active, inactive

1. O=c1c2ccccc2n(Cc2ccc(F)cc2)c(=O)n1C1CCCC1
active
2. C/[N+]([O-])=C\C1C(=O)CC(C)(C)CC1=O
inactive
3. CN1C(=O)NC(c2ccccc2)(C(F)(F)F)S/C1=C(/C#N)c1nnc(N2CCOCC2)n1-c1ccccc1 (stereo not given)
inactive
4. O=C(Cc1ccc(-n2cccc2)cc1)N1CCN(c2ccccc2F)CC1
inactive
5. CCc1sc(C(=O)NCCc2ccc(S(N)(=O)=O)cc2)cc1Br
inactive

###

Listed compounds paired with reported EC50
Experiment: cytotoxicity toward DRD oncogenic fibroblasts, dose response, cell-based, non-viral oncogenic, luminescence (AID 1934)
Assay type: functional
Conditions: Homo sapiens
Activity calls are given as the source filed them.
experimental endpoint: EC50

1) C/C=C/COC(=O)c1[nH]c2c(c1C)C(=O)CC(c1ccco1)C2 (centres undefined)
2.76 µM (active)
2) NS(=O)(=O)c1ccc(NC(=O)c2cc(-c3cccs3)nc3ccccc23)cc1
10.8 µM (active)
3) COc1ccc(C(=O)/C=C/C(=O)N(CC(=O)NC2CCCCC2)Cc2ccccc2OC)c(O)c1
3.39 µM (active)
4) CC(C)C(=O)Nc1sc2c(c1C(N)=O)CCN(Cc1ccccc1)C2
47.8 µM (active)

###

Test: cells
Format: functional, cell-based
The source made the active and inactive calls.
experimental endpoint: EC50

1. COc1cccc(-n2c(SCC(=O)N3CCOCC3)nc3c4ccccc4nc-3c2O)c1
> 350 µM (not active)
2. COc1ccc2cc(C(C)C(=O)N3CCC(C(N)=O)CC3)ccc2c1 (centres undefined)
> 350 µM (not active)
3. COc1cc(OC)c2nc(C)c3c(c2c1)N(c1ccc(O)cc1)CC3
> 350 µM (not active)
4. COc1cccc(CNC(=O)CCCn2c(=S)[nH]c3cc4c(cc3c2=O)OCO4)c1
54.4 µM (active)

###

Molecular target: Calpain-2 catalytic subunit (Sus scrofa, UniProt P43367)
Sequence (P43367 whole entry): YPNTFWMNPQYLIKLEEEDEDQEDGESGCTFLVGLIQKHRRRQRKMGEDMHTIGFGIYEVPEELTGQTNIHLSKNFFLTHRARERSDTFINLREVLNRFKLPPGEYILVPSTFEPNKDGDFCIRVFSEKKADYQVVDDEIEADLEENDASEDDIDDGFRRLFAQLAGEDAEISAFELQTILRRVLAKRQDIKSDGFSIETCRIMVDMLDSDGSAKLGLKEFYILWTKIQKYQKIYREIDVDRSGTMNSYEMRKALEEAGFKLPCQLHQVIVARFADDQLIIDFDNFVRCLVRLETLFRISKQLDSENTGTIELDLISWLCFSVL
Experiment: pig calpain II inhibitor potency, dose response, biochemical, fluorogenic peptide substrate (AID 1420)
Format: functional
Catalogue of molecules with associated IC50
experimental endpoint: IC50

1) COc1ccc(NC(=S)N(CCCN2CCOCC2)Cc2cn(C)c3ccccc23)cc1
0.737 µM (not active)
2) Cc1ccc(C)c(N(C(=O)Cc2cccs2)C(C(=O)NC2CCCC2)c2ccc(C)o2)c1 (stereo not drawn)
7.05 µM (not active)
3) CCOc1ccccc1C(=O)N1c2ccccc2Sc2ccccc21
4.06 µM (not active)

###

Biological target: Protein skinhead-1 (Caenorhabditis elegans, UniProt P34707)
Sequence (P34707 whole entry): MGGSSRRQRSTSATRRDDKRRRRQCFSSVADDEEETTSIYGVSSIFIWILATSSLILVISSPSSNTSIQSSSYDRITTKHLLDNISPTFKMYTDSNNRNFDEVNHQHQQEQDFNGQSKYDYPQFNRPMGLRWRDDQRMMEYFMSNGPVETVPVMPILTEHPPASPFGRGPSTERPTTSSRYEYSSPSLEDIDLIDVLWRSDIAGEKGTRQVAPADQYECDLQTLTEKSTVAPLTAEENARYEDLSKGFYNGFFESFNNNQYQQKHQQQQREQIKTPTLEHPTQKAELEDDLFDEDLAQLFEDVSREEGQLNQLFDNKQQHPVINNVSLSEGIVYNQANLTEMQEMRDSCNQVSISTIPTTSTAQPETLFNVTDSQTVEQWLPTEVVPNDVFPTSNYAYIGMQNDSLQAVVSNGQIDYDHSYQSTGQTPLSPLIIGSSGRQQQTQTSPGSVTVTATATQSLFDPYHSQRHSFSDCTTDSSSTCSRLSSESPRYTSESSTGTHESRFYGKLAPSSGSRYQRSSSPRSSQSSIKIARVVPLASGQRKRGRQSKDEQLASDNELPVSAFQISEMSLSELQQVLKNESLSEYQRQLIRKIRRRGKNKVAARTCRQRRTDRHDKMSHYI
Assay type: functional
The source made the active and inactive calls.
Outcome codes: y for active, n for inactive

1. O=[N+]([O-])c1ccc(Oc2ccc(F)cc2)c2ccncc12
n
2. Cc1cc(C)n2c(SCc3c(C)noc3C)nnc2n1
n
3. CCN(CC)Cc1ccc(NC(=O)c2sc3cc(Cl)ccc3c2Cl)cc1
y
4. O=C(Nc1cc(C(F)(F)F)ccc1N1CCCCC1)C1=COCCO1
n
5. COc1ccccc1-c1c(C(F)(F)F)oc2cc(OC(=O)c3cccc([N+](=O)[O-])c3C)ccc2c1=O
n
6. Clc1ccc(-c2nnsc2SCc2ccccc2)cc1
n
7. COCCCn1c(SCC(=O)NC(C)C)nnc1-c1ccccc1
n
8. CCCNCc1cc(Cl)c(OCC)c(Cl)c1
n
9. CCn1c(C)c(C2=CCN(S(=O)(=O)c3ccccc3)CC2)c2ccccc21
n
10. O=C(NCC(=O)N(Cc1cccs1)C(C(=O)NC1CCCCC1)c1ccncc1)c1ccco1 (stereo unspecified)
n
11. Fc1ccc(-c2csc(Nc3ccccn3)n2)c(F)c1
n
